# Test system: COLO 205
# experimental_details: NCI tumour cell line growth inhibition, 48 h
Calls of active or inactive are those of the source. Rule as the data show it: active = GI50 up to about 1.1 µM and inactive = higher. *1 amine or outer side, *2 acyl side, *3 side chain or, on linkers, in order; H or OH if unused. Where a SMILES comes first, the peptide text is derived from it. Bridges are numbered along the chain shown (N, C = ends). Roman numbers before positions name the chains, in order. [ ]: non-standard residue; d: D form. Actinocin(9to1) = Cc1c2oc3c(C)ccc(C(=O)[*:1])c3nc-2c(C(=O)[*:2])c(N)c1=O; NMeV = CN[CH](C(=O)O)C(C)C; Sar = CNCC(=O)O
Classes used: active, inactive

molecule | assigned_class
Cc1c2oc3c(C)ccc(C(=O)NC4C(=O)NC(C(C)C)C(=O)N5CCCC5C(=O)N(C)CC(=O)N(C)C(C(C)C)C(=O)OC4C)c3nc-2c(C(=O)NC2C(=O)NC(C(C)C)C(=O)N3CCCC3C(=O)N(C)CC(=O)N(C)C(C(C)C)C(=O)OC2C)c(N)c1=O (configuration not stated) (I: TVP[Sar][NMeV] / II: TVP[Sar][NMeV]; ester I:1-I:C, II:1-II:C; linker I:N-II:N via Actinocin(9to1); configuration not given here) | active
COC(Cc1ccccc1)NC(C)=O (configuration not stated) | inactive
O=C(O)C(CO)NC(=O)n1c2ccccc2c2ccccc21 (configuration not stated) | inactive
COc1cccc(CSCC(=O)O)c1 | inactive
CCCC#CCOC(=O)c1cc([N+](=O)[O-])cc([N+](=O)[O-])c1 | inactive
C/C=C\C(CC(=O)NCCC1CN(S(=O)(=O)c2ccc(C)cc2)c2ccccc21)CC(=O)OC (configuration not stated) | inactive
COc1ccc(/C(C)=N/NC(=O)c2ccncc2)c(OC)c1 | inactive

----------
# GI50 per record follows
# System: EKVX
# experimental_details: NCI tumour cell line growth inhibition, 48 h
Calls of active or inactive are those of the source. Cut-off read from the data, not from the text of the source: active = GI50 up to about 1.1 µM and inactive = higher. Where a SMILES comes first, the peptide text is derived from it.

molecule | GI50
COC(=O)C(=O)Cc1nc2ccccc2o1 | > 100 µM (inactive)
CC(=O)Nc1ccc2c3c(cc(O)c2c1)N(C(=O)CCCCC(=O)Nc1ccc2c4c(cc(O)c2c1)N(C(=O)OC(C)(C)C)CC4CCl)CC3CCl (centres undefined) | 12.8 µM (inactive)
C=C1[C@@H]2CCC(C)(C)[C@H]1CCC(=O)[C@@H]2C(=O)OC | > 100 µM (inactive)
CCC(C)C1NC(=O)C2CCCN2C(=O)CNC(=O)C(C)NC(=O)C(Cc2ccccc2)NC(=O)C(C(C)C)NC1=O (centres undefined) (cyclo(GPIVFA); configuration not given here) | > 100 µM (inactive)

----------
# System: SK-MEL-5
# experimental_details: NCI tumour cell line growth inhibition, 48 h
Active and inactive are the calls of the source. No stated cut-off is given here; in the data, active = GI50 up to about 1.1 µM and inactive = higher.

compound | GI50
COC(=O)CCCc1ccc2c(c1)CC1(C2)Cc2cc3c(cc2C1)CCCC3 | 19.2 µM (inactive)
NCCCOc1ccc([N+](=O)[O-])cc1Cl | > 100 µM (inactive)
COc1ccc(-c2c3c(nc4nc(SCCc5ccccc5)nc(N)c24)CCCC3)cc1OC | > 100 µM (inactive)
c1ccc2cc(C3NCCc4nc[nH]c43)ccc2c1 (stereo unspecified) | 19.1 µM (inactive)
CC(=O)CC(=O)c1cc2c(=O)oc(C)cc2oc1=O | > 37.5 µM (inactive)
CCOC(=O)C(C(=O)OCC)S(C)(=O)=O | > 100 µM (inactive)
Nc1ncnc2c1ncn2[C@H]1CC[C@@H](NO)C1 | > 100 µM (inactive)
CC12c3c4cc(Br)cc3Oc3cc(Br)cc(c31)Oc1cc(Br)cc(c12)O4 | 27.6 µM (inactive)
CCCCCCCCCCCCCCCCNc1nc(=O)n(C2OC(C)C(O)C2O)cc1F (stereo unspecified) | 18.5 µM (inactive)
COC(=O)c1ccc(CN2CCc3c([nH]c4ccccc34)C2CO)o1 (stereo unspecified) | > 10 µM (inactive)
O=C(c1cccs1)N(C(=O)N1CCN(c2ccccc2)CC1)S(=O)(=O)c1ccccc1 | 17 µM (inactive)

Entry source: ChEMBL document CHEMBL1201862
